Listed next: entries and their corresponding koff.
target: T1, human IL-36R extracellular domain expressed with a C-terminal myc-myc-hexahistidine tag (hIL-36R-MMH) (human, UniProt Q9HB29 20-337); assay: SPR Biacore T200, mAb captured on anti-hFc, 37C, PBS-T pH 6.0 running buffer
T1 construct: also called Human IL-36R-MMH; REGN2105
T1 sequence (Q9HB29 other isoform, or with tags, fused parts or gaps limits assumed): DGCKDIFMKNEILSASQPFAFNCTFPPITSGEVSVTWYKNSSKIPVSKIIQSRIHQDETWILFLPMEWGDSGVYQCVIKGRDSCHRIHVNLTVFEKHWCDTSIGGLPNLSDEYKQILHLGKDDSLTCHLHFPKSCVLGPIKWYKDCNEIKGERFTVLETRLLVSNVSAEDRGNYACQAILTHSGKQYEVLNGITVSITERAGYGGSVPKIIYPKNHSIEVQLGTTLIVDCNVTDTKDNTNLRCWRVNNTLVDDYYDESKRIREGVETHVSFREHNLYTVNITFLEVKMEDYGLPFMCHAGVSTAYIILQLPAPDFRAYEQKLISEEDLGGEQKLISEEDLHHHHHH
State just the number; it will be interpreted in s⁻¹.

Examples with their reported koff follow.
Binder	koff / s⁻¹
H4H14699P2 (antibody, human IgG4 S228P, kappa, V domains shown, Fully human anti-IL-36R antibody) VH: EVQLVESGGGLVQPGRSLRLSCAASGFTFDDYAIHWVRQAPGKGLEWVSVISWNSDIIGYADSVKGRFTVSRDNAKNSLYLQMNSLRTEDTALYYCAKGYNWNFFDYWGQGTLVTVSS VL: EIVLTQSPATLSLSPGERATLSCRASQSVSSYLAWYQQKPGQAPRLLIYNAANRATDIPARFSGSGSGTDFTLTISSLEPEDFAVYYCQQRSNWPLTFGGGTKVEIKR	0.00581
H4H14708P2 (antibody, human IgG4 S228P, kappa, V domains shown, Fully human anti-IL-36R antibody) VH: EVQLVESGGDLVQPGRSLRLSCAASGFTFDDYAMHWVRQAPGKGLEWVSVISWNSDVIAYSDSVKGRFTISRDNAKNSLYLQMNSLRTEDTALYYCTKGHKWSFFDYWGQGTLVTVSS VL: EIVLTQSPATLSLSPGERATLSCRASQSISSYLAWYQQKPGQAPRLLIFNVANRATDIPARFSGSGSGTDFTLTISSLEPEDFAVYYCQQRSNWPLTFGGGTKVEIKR	0.00337

--- query ---
Recorded result, H4H14728P (antibody, human IgG4 S228P, kappa, V domains shown, Fully human anti-IL-36R antibody) VH: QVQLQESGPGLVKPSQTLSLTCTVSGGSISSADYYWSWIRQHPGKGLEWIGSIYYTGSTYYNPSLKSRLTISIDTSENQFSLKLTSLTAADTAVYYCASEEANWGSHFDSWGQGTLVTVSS VL: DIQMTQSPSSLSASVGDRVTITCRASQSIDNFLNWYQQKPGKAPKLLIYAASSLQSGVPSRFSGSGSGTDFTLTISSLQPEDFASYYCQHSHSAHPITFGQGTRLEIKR , koff: 0.00306
